Reported values of Ki for individual entries
Target: dopamine D2 receptor (Rattus norvegicus, UniProt P61169)
Construct: Rat striatum was homogenized in 20 volumes of ice-cold 50 mM Tris-HCl buffer; from tissue; host or cells: rat striatum
Sequence (P61169 whole entry): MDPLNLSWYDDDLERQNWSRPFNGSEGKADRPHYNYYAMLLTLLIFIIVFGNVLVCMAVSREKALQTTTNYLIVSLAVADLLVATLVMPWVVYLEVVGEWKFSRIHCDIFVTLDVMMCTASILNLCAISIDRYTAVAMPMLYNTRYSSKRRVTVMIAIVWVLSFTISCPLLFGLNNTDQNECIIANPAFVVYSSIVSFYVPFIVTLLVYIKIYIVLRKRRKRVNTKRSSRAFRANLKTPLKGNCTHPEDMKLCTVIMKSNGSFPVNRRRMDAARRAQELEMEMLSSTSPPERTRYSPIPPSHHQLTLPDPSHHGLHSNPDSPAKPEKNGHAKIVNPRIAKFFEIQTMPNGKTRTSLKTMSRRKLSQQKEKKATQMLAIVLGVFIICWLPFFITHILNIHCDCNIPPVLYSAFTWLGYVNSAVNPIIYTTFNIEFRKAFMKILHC
Assay: D2 dopaminergic binding assay ([3H]spiperone, rat striatum)
Conditions: [3H]spiperone, rat striatum; mean of three experiments; >10000 marked b: Ki not calculated, inhibition at 10 µM too low; read-out: Ki±SEM, D2
Reply with just the number (in nM).

The following molecules have reported results that may help.
smilesText: Fc1ccc(-c2nnc(SCCCN3CCC(c4noc5cc(F)ccc45)CC3)o2)cc1
testedSystem: dopamine D2 receptor (Rattus norvegicus, UniProt P61169)
measuredQuantity: Ki
recordedValue: 125
//
smilesText: Fc1ccc2c(C3CCN(CCCSc4nnc(-c5ccc(Cl)cc5)o4)CC3)noc2c1
testedSystem: dopamine D2 receptor (Rattus norvegicus, UniProt P61169)
measuredQuantity: Ki
recordedValue: 18.3
//
smilesText: Clc1ccc(-c2nnc(SCCCN3CCN(c4nsc5ccccc45)CC3)o2)cc1
testedSystem: dopamine D2 receptor (Rattus norvegicus, UniProt P61169)
measuredQuantity: Ki
recordedValue: 126
//
smilesText: Fc1ccc2c(C3CCN(CCCSc4nnc(-c5cccs5)o4)CC3)noc2c1
testedSystem: dopamine D2 receptor (Rattus norvegicus, UniProt P61169)
measuredQuantity: Ki
recordedValue: 91
//
smilesText: c1ccc2c(-c3nnc(SCCCN4CCN(c5nsc6ccccc56)CC4)o3)cccc2c1
testedSystem: dopamine D2 receptor (Rattus norvegicus, UniProt P61169)
measuredQuantity: Ki
recordedValue: 138

Report Ki for Fc1ccc2c(C3CCN(CCCSc4nnc(-c5ccncc5)o4)CC3)noc2c1 tested on dopamine D2 receptor (Rattus norvegicus, UniProt P61169). 260

Could you do the same for COc1ccc(-c2nnc(SCCCN3CCN(c4nsc5ccccc45)CC3)o2)cc1 , please? 96.7

Could you do the same for FC(F)(F)c1ccc(-c2nnc(SCCCN3CCN(c4nsc5ccccc45)CC3)o2)cc1 , please? 487

Could you do the same for Fc1ccc2c(C3CCN(CCCSc4nnc(-c5cccc6ccccc56)o4)CC3)noc2c1 , please? 23
